# Assay Name: in vivo
# Condition Parameters: BALB/c nude, mouse, in vivo, iv, total radioactivity, T/P Tumor/Pancreas ratio

{"Compound": "C[C@@H](O)[C@H](NC(=O)[C@@H]1CSSC[C@H](NC(=O)[C@@H](Cc2ccccc2)NC(=O)[C@H](CCCCNC(=O)c2cccc(NC(=O)N[C@@H]3CN(C4CCCCC4)c4ccccc4N(CC(=O)C(C)(C)C)C3=O)c2)NC(=O)COCCOCCNC(=O)CN2CCN(CC(=O)O)CCN(CC(=O)O)CCN(CC(=O)O)CC2)C(=O)N[C@@H](Cc2ccc(O)cc2)C(=O)N[C@H](Cc2c[nH]c3ccccc23)C(=O)N[C@@H](CCCCN)C(=O)N[C@@H]([C@@H](C)O)C(=O)N1)C(=O)O [Compound I-35, DOTA-OEG-K(Z360)-f[CYwKTC]T-OH]", "tissue to tissue ratio at 24 h": 19}
{"Compound": "C[C@@H](O)[C@H](NC(=O)[C@@H]1CSSC[C@H](NC(=O)[C@@H](Cc2ccccc2)NC(=O)COCCOCCNC(=O)COCCOCCNC(=O)[C@H](CCCCNC(=O)c2cccc(NC(=O)N[C@@H]3CN(C4CCCCC4)c4ccccc4N(CC(=O)C(C)(C)C)C3=O)c2)NC(=O)CN2CCN(CC(=O)O)CCN(CC(=O)O)CCN(CC(=O)O)CC2)C(=O)N[C@@H](Cc2ccc(O)cc2)C(=O)N[C@H](Cc2c[nH]c3ccccc23)C(=O)N[C@@H](CCCCN)C(=O)N[C@@H]([C@@H](C)O)C(=O)N1)C(=O)O [Compound I-39, DOTA-K(Z360)-OEG-OEG-f[CYwKTC]T-OH]", "tissue to tissue ratio at 24 h": 29}

Where do these numbers come from? They come from patent US20260248972A1.
